Measured Target: T1, hANGPTL4(26-148)-mFc (Homo sapiens, UniProt Q9BY76)
T1 construct: amino acid residues 26-148 of human ANGPTL4 fused in-line to mouse IgG2a (hANGPTL4-mFc)
T1 sequence (Q9BY76 with tags, fused parts or gaps): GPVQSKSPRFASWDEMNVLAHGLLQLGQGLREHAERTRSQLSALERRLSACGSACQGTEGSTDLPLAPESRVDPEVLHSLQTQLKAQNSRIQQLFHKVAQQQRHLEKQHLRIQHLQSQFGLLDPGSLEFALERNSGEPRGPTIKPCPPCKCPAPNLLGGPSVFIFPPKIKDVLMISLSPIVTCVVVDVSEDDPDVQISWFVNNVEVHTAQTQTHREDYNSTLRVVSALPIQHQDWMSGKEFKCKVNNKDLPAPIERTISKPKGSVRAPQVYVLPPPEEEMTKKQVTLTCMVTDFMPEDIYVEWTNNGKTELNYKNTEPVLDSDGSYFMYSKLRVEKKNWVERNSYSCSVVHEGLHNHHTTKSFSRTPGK
Method: BIACORE, full mAb or Fab over anti-mFc captured hANGPTL4(26-148)-mFc
Assay type: binding
Experimental Context: pH 5.75, 25° C.
# ka annotations
Assay Readout: ka (M⁻¹ s⁻¹)

Molecule: H1H268P: anti-hANGPTL4 antibody, hIgG1 isotype, HCVR/LCVR SEQ ID NOs 42/44 (antibody, V domains shown) VH: QVQLQESGAGLLKPSETLSLTCTVYGGSFSIHHWTWIRHPPGKGLEWIGEINHRGSTNYNPSLKSRVTISIDTSKNQFSLKLSAVTAADTAVYYCARGLRFLDWLSSYFDYWGQGTLVTVSS VL: DIQMTQSPSSLSASVGDRVTITCRASQGISDYLAWYQQKPGKVPNLLIYAASALQSGVPSRFSGSGSGTDFTLTISSLQPEDVATYYCQNYNTAPLTFGGGTKVEIK
Result Units: M⁻¹ s⁻¹
Experimental Result: 628000

Molecule: H1H268P Fab: Fab fragment of H1H268P prepared by papain digestion (antibody, V domains shown) VH: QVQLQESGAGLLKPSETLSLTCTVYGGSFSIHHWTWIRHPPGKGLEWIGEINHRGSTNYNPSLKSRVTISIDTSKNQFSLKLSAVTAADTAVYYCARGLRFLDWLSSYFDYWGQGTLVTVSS VL: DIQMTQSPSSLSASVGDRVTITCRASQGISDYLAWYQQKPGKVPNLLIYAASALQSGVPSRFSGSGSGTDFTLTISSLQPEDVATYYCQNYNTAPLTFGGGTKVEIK
Result Units: M⁻¹ s⁻¹
Experimental Result: 174000

Molecule: H1H284P: anti-hANGPTL4 antibody, hIgG1 isotype, HCVR/LCVR SEQ ID NOs 90/92 (antibody, V domains shown) VH: QVQLVESGGGVVQPGRSLRLSCAASGFTFSSYGMHWVRQAPGKGLEWMAVISFDGGNKNNADSVKGRFTISRDNSKNTLYLQMNSLRAEDTAVYYCAKEGDRSGHPYFYYYGLDVWGQGTTVTVS VL: DIQLTQSPSFLSASVGDRVTITCWASQGISSYLAWYQQKPGKAPKLLIYAASTLQSGVPSRFSGSGSETEFTLTISSLQPEDFATYYCQQLHSYPLTFGGGTKVEIK
Result Units: M⁻¹ s⁻¹
Experimental Result: 1.09e+06
